Molecular target: Pseudomonas aeruginosa thymidylate monophosphate kinase (TMK) (Pseudomonas aeruginosa, UniProt Q9HZN8)
Sequence (Q9HZN8 whole entry): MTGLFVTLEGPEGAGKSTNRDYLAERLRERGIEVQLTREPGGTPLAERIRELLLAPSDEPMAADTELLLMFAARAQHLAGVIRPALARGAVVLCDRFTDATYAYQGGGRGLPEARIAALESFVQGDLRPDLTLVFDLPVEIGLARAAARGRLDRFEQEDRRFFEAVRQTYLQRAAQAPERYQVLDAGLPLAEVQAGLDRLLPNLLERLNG
Assay: Thymidylate kinase kinetic assay
Type: biochemical
Conditions: PaTMK IC50 compared with secondary amide 19
Measured metric: fold improved potency over 19

Reference set, count: 5
>>> reported_measurement("Cn1c(=O)[nH]c2ncc(-c3cccc(C(=O)NCC(=O)O)c3)cc21")
"about 2.5 fold"
>>> reported_measurement("Cn1c(=O)[nH]c2ncc(-c3cccc(C(=O)NCCCc4ccc(C(F)(F)F)cc4)c3)cc21")
"ca. 18 fold"
>>> reported_measurement("Cn1c(=O)[nH]c2ncc(-c3cccc(C(=O)NCCCc4c[nH]c5ccccc45)c3)cc21")
"ca. 18 fold"
>>> reported_measurement("Cn1c(=O)[nH]c2ncc(-c3cccc(C(=O)NCCCc4ccc(F)cc4)c3)cc21")
"ca. 18 fold"
>>> reported_measurement("Cn1c(=O)[nH]c2ncc(-c3cccc(C(=O)NCC(N)=O)c3)cc21")
"about 2.5 fold"

Which value of fold improved potency over 19 has been reported for Cn1c(=O)[nH]c2ncc(-c3cccc(C(=O)NCC(Cc4ccccc4)C(=O)O)c3)cc21 (stereo not drawn) in the records?
ca. 18 fold
